System: CRL-1459
protocol-summary: MTT assay, normal cell line
Type: cell-based
run-conditions: 72 h incubation, mean ± SD of three experiments
quantity-measured: pIC50
The scale used: pIC50 is minus the common logarithm of the concentration in molar units.

// below: answered molecules
molecule | quantity-measured | obs-value
Cc1ccc(C(=O)/C=C/c2cccc(OCc3ccccc3)c2)cc1 [Compound 15e] | pIC50 | 4.70
O=C(/C=C/c1cccc(OCc2ccccc2)c1)c1ccc([N+](=O)[O-])cc1 [Compound 15d] | pIC50 | 4.59

Data point: O=C(/C=C/c1cccc(OCc2ccccc2)c1)c1ccccc1 [Compound 15a] ; pIC50 = 5.11

According to the records, this molecule O=C(/C=C/c1cccc(OCc2ccccc2)c1)c1ccc(O)cc1 [Compound 15k] displays pIC50 of 5.07

Per the records, this molecule ( O=C(/C=C/c1cccc(OCc2ccccc2)c1)c1ccccc1Br [Compound 15h] ) has pIC50 equal to 5.62

// pIC50 value for O=C(/C=C/c1cccc(OCc2ccccc2)c1)c1ccc(Cl)c(Cl)c1Cl [Compound 15g] : 5.60

* * *

Tested on: HCT116 Bak knockout (Bak–/–) cells
protocol-summary: MTT assay, knockout cells
Format: cell-based
run-conditions: Homo sapiens, HCT-116, not significantly different from WT
quantity-measured: pIC50
By convention, pIC50 is the negative base-10 log of a molar concentration.

Tested system HCT116 Bak knockout (Bak–/–) cells; pIC50 recorded for O=C(/C=C/c1cccc(OCc2ccccc2)c1)c1ccc(O)cc1 [Compound 15k] was 5.44

* * *

Test system: S1
protocol-summary: MTT assay
Type: cell-based
run-conditions: Homo sapiens, 72 h incubation, mean ± SD of three experiments, read-out: IC50 ± SD, Colon S1
quantity-measured: pIC50
Reminder that pIC50 means the negative base-10 logarithm of the concentration expressed in mol/L.

Consider the reported pIC50 for these compounds:
compound | measured-on | obs-value
O=C(/C=C/c1cccc(OCc2ccccc2)c1)c1ccc(Br)cc1 [Compound 15j] | S1 | 5.62
O=C(/C=C/c1cccc(OCc2ccccc2)c1)c1ccc(O)cc1 [Compound 15k] | S1 | 5.72
O=C(/C=C/c1cccc(OCc2ccccc2)c1)c1cccc(Br)c1 [Compound 15i] | S1 | 5.21
COc1ccc(C(=O)/C=C/c2cccc(OCc3ccccc3)c2)cc1 [Compound 15f] | S1 | 4.63
O=C(/C=C/c1cccc(OCc2ccccc2)c1)c1ccc(Cl)cc1 [Compound 15b] | S1 | 5.02
O=C(/C=C/c1cccc(OCc2ccccc2)c1)c1ccccc1Br [Compound 15h] | S1 | 5.72
O=C(/C=C/c1cccc(OCc2ccccc2)c1)c1ccccc1 [Compound 15a] | S1 | 5.55
O=C(/C=C/c1cccc(OCc2ccccc2)c1)c1ccc([N+](=O)[O-])cc1 [Compound 15d] | S1 | 5.05

Reported pIC50 ( Cc1ccc(C(=O)/C=C/c2cccc(OCc3ccccc3)c2)cc1 [Compound 15e] ) = 4.65

For record O=C(/C=C/c1cccc(OCc2ccccc2)c1)c1ccc(Cl)cc1Cl [Compound 15c] the listed pIC50 is 5.16

According to the records, this compound O=C(/C=C/c1cccc(OCc2ccccc2)c1)c1ccc(Cl)c(Cl)c1Cl [Compound 15g] displays pIC50 of 5.64

* * *

System: HCT116 cells
protocol-summary: CellTiter-Glo luminescent assay (ATP content)
Type: cell-based
run-conditions: Homo sapiens, HCT-116, data not shown, read-out: IC50, ATP depletion
Quick list: pIC50 per entry.
Note on pIC50: it is the negative log10 of concentration, concentration in mol/L.

compound | pIC50
O=C(/C=C/c1cccc(OCc2ccccc2)c1)c1ccc(O)cc1 [Compound 15k] | 6.12

Please examine the following record next.
Briefly, pIC50 measured for O=C(/C=C/c1cccc(OCc2ccccc2)c1)c1ccc(Br)cc1 [Compound 15j] : 6.16
